biological target: Beta-3 Adrenergic Receptor (Homo sapiens (Human)); test: HTRF cAMP antagonist assay (IC50 determination); format: cell-based; details: CHO-K1 cells stably expressing recombinant receptor; antagonism of isoproterenol at EC90; cAMP readout
Sequence (P13945 whole entry, species assumed): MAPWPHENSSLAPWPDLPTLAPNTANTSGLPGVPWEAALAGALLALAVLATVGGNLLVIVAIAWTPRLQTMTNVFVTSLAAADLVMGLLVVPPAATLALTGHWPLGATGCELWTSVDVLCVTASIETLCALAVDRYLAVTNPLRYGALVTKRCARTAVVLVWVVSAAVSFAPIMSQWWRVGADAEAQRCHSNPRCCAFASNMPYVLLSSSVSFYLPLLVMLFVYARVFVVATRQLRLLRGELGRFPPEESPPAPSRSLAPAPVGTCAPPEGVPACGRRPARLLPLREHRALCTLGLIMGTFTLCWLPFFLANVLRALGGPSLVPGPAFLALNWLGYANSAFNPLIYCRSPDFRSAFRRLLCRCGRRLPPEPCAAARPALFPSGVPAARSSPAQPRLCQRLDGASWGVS
Measured Property: IC50 (nM)

| Molecule | Target System | Value Units | IC50 |
| --- | --- | --- | --- |
| O=S(=O)(c1cccc(OC[C@@H](O)CN[C@H]2COC3(CCN(S(=O)(=O)c4c[nH]c5ccccc45)CC3)C2)c1)C1CC1 [Compound 308] | Beta-3 Adrenergic Receptor (Homo sapiens (Human)) | nM | 34.5 |

P = CN1CCOc2ncc(S(=O)(=O)N3CCC4(CC3)C[C@@H](NC[C@H](O)COc3cccc(S(=O)(=O)C5CC5)c3)CO4)cc21 [Compound 154]
Q = COc1ccc(S(=O)(=O)N2CCC3(CC2)C[C@H](NC[C@H](O)COc2cccc(S(=O)(=O)C4(CO)CC4)c2)CO3)cc1-c1ccc(C2(N)CC2)cc1 [Compound 225]
Which record would sort first by descending IC50, P or Q ? Response format: the label of the selected entry.
Q
